Organism: Cavia porcellus
Assay comment: Sumatriptan induced inhibition of potassium evoked [3H]5-HT release from guinea pig cortex slices
Type: functional
Attribute: Release
Response body: numeric value in %, unit text excluded.

Here are 6 molecules together with their reported answers.
COc1ccc(NC(=O)N2CCC(c3c[nH]c4cccc(F)c34)CC2)cc1N1CCN(C)CC1 :: 145
Cc1nc(-c2ccc(-c3ccc(C(=O)Nc4ccc5c(c4)C4(CCN(C)CC4)CO5)cc3)c(C)c2)no1 :: 134
COc1ccc(NC(=O)N2CCC(c3c[nH]c4ccc(C(N)=O)cc34)CC2)cc1N1CCN(C)CC1 :: 217
COc1ccc(NC(=O)N2CCC(c3c[nH]c4ccccc34)CC2)cc1N1CCN(C)CC1 :: 127
COc1ccc(NC(=O)c2ccc(-c3ccc(-c4noc(C)n4)cc3C)cc2)cc1N1CCN(C)CC1 :: 114
COc1ccc(NC(=O)N2CCC(c3c[nH]c4ccc(F)cc34)CC2)cc1N1CCN(C)CC1 :: 151

Query: Give its Release value. Item: `COc1ccc(NC(=O)N2CCN(CCCCc3c[nH]c4ccc(F)cc34)CC2)cc1N1CCN(C)CC1`
Response: 120

====

Attribute: Release
Species: Cavia porcellus
Assay comment: Sumatriptan induced inhibition of potassium evoked [3H]5-HT release from guinea pig cortex slices
Assay type: functional
Response body: numeric value in %, unit text excluded.

Here are 2 molecules together with their reported answers.
CN1CCC2(CC1)COc1ccc(NC(=O)N3CCC(c4c[nH]c5ccc(F)cc45)CC3)cc12 :: 125
COc1ccc(NC(=O)N2CCC(c3c[nH]c4cc(F)ccc34)CC2)cc1N1CCN(C)CC1 :: 169

The record that follows has no Release shown yet.
Query: Give its Release value. Item: `COc1ccc(NC(=O)NCCc2c[nH]c3ccc(F)cc23)cc1N1CCN(C)CC1`
Response: 134

====

Attribute: IC50
Target under test: 5-hydroxytryptamine receptor 1A (Rattus norvegicus)
Sequence (P19327 whole entry): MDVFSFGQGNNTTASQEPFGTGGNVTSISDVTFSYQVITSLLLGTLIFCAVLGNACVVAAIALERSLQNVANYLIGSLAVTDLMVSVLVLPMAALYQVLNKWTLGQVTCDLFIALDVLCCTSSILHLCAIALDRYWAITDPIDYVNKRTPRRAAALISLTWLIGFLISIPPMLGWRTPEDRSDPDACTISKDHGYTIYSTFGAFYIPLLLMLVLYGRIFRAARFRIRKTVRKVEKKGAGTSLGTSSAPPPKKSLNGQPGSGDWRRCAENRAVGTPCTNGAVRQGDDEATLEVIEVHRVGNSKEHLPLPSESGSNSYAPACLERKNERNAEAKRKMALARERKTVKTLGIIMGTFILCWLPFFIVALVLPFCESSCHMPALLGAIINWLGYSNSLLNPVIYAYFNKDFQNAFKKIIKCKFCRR
Assay comment: Binding affinity towards 5-hydroxytryptamine 1A receptor in rat hippocampus using [3H]8-OH-DPAT as radio-ligand.

CN1CCC2(CC1)COc1ccc(NC(=O)N3CCC(c4c[nH]c5ccc(F)cc45)CC3)cc12 :: > 200 nM
COc1ccc(NC(=O)N2CCC(c3c[nH]c4ccc(F)cc34)CC2)cc1OCCN(C)C :: > 500 nM
COc1ccc(NC(=O)N2CCc3[nH]c4ccc(F)cc4c3C2)cc1N1CCN(C)CC1 :: > 800 nM

Query: Give its IC50 value. Item: `COc1ccc(NC(=O)N2CCC(CCc3c[nH]c4ccccc34)CC2)cc1N1CCN(C)CC1`
Response: > 300 nM
